Molecular target: T1, Rat IL2Rγ extracellular domain expressed with a C-terminal myc-myc-hexahistidine tag (rat)
T1 construct: whole entry is the tagged construct; also called rIL-2Rg-MMH; rat IL-2Rg-MMH
T1 chain: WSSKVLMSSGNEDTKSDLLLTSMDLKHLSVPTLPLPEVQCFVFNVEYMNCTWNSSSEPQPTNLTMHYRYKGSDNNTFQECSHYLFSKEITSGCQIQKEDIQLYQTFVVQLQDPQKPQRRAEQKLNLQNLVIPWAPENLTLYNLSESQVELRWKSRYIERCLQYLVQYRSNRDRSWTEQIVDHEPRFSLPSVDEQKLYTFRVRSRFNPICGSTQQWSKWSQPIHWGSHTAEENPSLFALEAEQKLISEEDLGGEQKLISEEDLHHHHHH
Assay: SPR Biacore 4000, anti-hFc-captured mAb, 37 C
Endpoint: 100 nM Ag Bound
Don't forget the unit after the value.

Example results:
- Binder: "H4H13541P (antibody, human IgG4 S228P, kappa, V domains shown, fully human anti-IL2Rgamma mAb, human IgG4 Fc) VH: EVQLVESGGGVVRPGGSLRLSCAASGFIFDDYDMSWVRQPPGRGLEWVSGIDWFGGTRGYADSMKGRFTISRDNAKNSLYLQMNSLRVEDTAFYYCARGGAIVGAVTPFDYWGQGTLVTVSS VL: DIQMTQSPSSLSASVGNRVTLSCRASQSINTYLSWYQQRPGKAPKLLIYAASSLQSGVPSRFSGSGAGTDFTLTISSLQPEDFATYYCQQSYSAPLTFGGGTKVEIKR"
  100 nM Ag Bound: "5 RU"
- Binder: "H4H13538P (antibody, human IgG4 S228P, kappa, V domains shown, fully human anti-IL2Rgamma mAb, human IgG4 Fc) VH: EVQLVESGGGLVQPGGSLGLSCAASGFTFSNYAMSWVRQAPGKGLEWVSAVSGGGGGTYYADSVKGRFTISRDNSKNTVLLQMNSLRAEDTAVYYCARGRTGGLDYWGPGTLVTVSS VL: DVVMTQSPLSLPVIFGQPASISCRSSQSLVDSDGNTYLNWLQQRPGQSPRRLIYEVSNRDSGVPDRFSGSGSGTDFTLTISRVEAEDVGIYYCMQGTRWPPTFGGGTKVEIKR"
  100 nM Ag Bound: "5 RU"

Query binder follows.
Query: Param item = H4H12886P (antibody, human IgG4 S228P, kappa, V domains shown, fully human anti-IL2Rgamma mAb, human IgG4 Fc) VH: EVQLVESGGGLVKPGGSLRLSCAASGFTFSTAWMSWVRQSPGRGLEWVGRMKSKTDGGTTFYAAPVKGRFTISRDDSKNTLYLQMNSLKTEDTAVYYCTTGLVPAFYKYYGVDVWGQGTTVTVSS VL: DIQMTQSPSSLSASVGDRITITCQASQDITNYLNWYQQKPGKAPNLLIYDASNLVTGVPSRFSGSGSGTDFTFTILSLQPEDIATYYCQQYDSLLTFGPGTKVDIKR ; retrieve measured 100 nM Ag Bound.
Result: 4 RU
